Data origin: patent US8258115B2

Please go through the items and note down their percentage of the active S,S stereoisomer remaining.
Assay: Degradation of the active stereoisomer S,S at 25° C. and 65% R.H.
Format: physicochemical
Settings: 90 days
Experimental: In the following Tables 14-25, the percentage values are reported of the degradation of the active stereoisomer S,S calculated at 40° C. and 75% R.H. (Tables 14-19) and at 25° C. and 65% R.H.
Hi! Could you send only the number? It should be in %, unit omitted.

query: Give a short answer stating reported percentage of the active S,S stereoisomer remaining for C[S+](CCC(N)C(=O)[O-])C[C@H]1O[C@@H](n2cnc3c(N)ncnc32)[C@H](O)[C@@H]1O.O=S(=O)(O)O.O=S(=O)(O)O.O=S(=O)([O-])[O-].[Mg+2] (stereo partly shown) .
result: 96.4

query: Give a short answer stating reported percentage of the active S,S stereoisomer remaining for C[S+](CCC(N)C(=O)[O-])C[C@H]1O[C@@H](n2cnc3c(N)ncnc32)[C@H](O)[C@@H]1O.C[S+](CCC(N)C(=O)[O-])C[C@H]1O[C@@H](n2cnc3c(N)ncnc32)[C@H](O)[C@@H]1O.Cl.[Cl-].[Cl-].[Mg+2] (stereo partly shown) [SAMe•0.5HCl•0.5MgCl2] .
result: 94.8

query: Give a short answer stating reported percentage of the active S,S stereoisomer remaining for C[S+](CCC(N)C(=O)[O-])C[C@H]1O[C@@H](n2cnc3c(N)ncnc32)[C@H](O)[C@@H]1O.C[S+](CCC(N)C(=O)[O-])C[C@H]1O[C@@H](n2cnc3c(N)ncnc32)[C@H](O)[C@@H]1O.Cl.O=S(=O)([O-])[O-].[Mg+2] (stereo partly shown) [SAMe•0.5HCl•0.5MgSO4] .
result: 95.8

query: Give a short answer stating reported percentage of the active S,S stereoisomer remaining for C[S+](CCC(N)C(=O)[O-])C[C@H]1O[C@@H](n2cnc3c(N)ncnc32)[C@H](O)[C@@H]1O.Cl.Cl.[Cl-].[Cl-].[Mg+2] (stereo partly shown) [SAMe•2.0HCl•1.0MgCl2] .
result: 95.7

###

Test: Stability test in thermostated heaters at 40° C. and 75% R.H., active ingredient %
Format: physicochemical
Conditions: heat-sealed aluminium/aluminium bags, 60 days
Method: In the following Tables 2-13, the percentage values are repotted which were obtained in the stability tests carried out on the products of examples 1-6. The stability tests were carried out in thermostated heaters at 40° C. and 75% R.H (tables 2-7) as well as 25° C. and 60% R.H. (tables 8-13), preserving the samples in heat-sealed aluminium/aluminium bags according to the following criteria: the active ingredient % was determined for every sampling point taken under consideration.
Please go through the items and note down their stability test percentage value (active ingredient %), 60 days.
Hi! Could you send only the number? It should be in %, unit omitted.

query: Give a short answer stating reported stability test percentage value (active ingredient %), 60 days for C[S+](CCC(N)C(=O)[O-])C[C@H]1O[C@@H](n2cnc3c(N)ncnc32)[C@H](O)[C@@H]1O.C[S+](CCC(N)C(=O)[O-])C[C@H]1O[C@@H](n2cnc3c(N)ncnc32)[C@H](O)[C@@H]1O.O=S(=O)(O)O.[Ca+2].[Cl-].[Cl-] (stereo partly drawn) .
result: 0.76

query: Give a short answer stating reported stability test percentage value (active ingredient %), 60 days for C[S+](CCC(N)C(=O)[O-])C[C@H]1O[C@@H](n2cnc3c(N)ncnc32)[C@H](O)[C@@H]1O.O=S(=O)(O)O.O=S(=O)(O)O.[Cl-].[Cl-].[Mg+2] (stereo partly drawn) .
result: 0.34

query: Give a short answer stating reported stability test percentage value (active ingredient %), 60 days for C[S+](CCC(N)C(=O)[O-])C[C@H]1O[C@@H](n2cnc3c(N)ncnc32)[C@H](O)[C@@H]1O.O=S(=O)(O)O.O=S(=O)(O)O.[Ca+2].[Cl-].[Cl-] (stereo partly drawn) .
result: 0.42

query: Give a short answer stating reported stability test percentage value (active ingredient %), 60 days for C[S+](CCC(N)C(=O)[O-])C[C@H]1O[C@@H](n2cnc3c(N)ncnc32)[C@H](O)[C@@H]1O.C[S+](CCC(N)C(=O)[O-])C[C@H]1O[C@@H](n2cnc3c(N)ncnc32)[C@H](O)[C@@H]1O.O=S(=O)(O)O.[Cl-].[Cl-].[Mg+2] (stereo partly drawn) .
result: 0.70

query: Give a short answer stating reported stability test percentage value (active ingredient %), 60 days for C[S+](CCC(N)C(=O)[O-])C[C@H]1O[C@@H](n2cnc3c(N)ncnc32)[C@H](O)[C@@H]1O.O=S(=O)(O)O.O=S(=O)(O)O.O=S(=O)([O-])[O-].[Mg+2] (stereo partly drawn) .
result: 0.44

query: Give a short answer stating reported stability test percentage value (active ingredient %), 60 days for C[S+](CCC(N)C(=O)[O-])C[C@H]1O[C@@H](n2cnc3c(N)ncnc32)[C@H](O)[C@@H]1O.C[S+](CCC(N)C(=O)[O-])C[C@H]1O[C@@H](n2cnc3c(N)ncnc32)[C@H](O)[C@@H]1O.O=S(=O)(O)O.O=S(=O)([O-])[O-].[Mg+2] (stereo partly drawn) .
result: 0.65

###

Test: Degradation of the active stereoisomer S,S at 40° C. and 75% R.H.
Format: physicochemical
Conditions: 60 days
Please go through the items and note down their percentage of active S,S stereoisomer remaining.
Hi! Could you send only the number? It should be in %, unit omitted.

query: Give a short answer stating reported percentage of active S,S stereoisomer remaining for C[S+](CCC(N)C(=O)[O-])C[C@H]1O[C@@H](n2cnc3c(N)ncnc32)[C@H](O)[C@@H]1O.O=S(=O)(O)O.O=S(=O)(O)O.[Cl-].[Cl-].[Mg+2] (stereo partly shown) [SAMe•2.0H2SO4•1.0MgCl2] .
result: 85.3

query: Give a short answer stating reported percentage of active S,S stereoisomer remaining for C[S+](CCC(N)C(=O)[O-])C[C@H]1O[C@@H](n2cnc3c(N)ncnc32)[C@H](O)[C@@H]1O.O=S(=O)(O)O.O=S(=O)(O)O.O=S(=O)([O-])[O-].[Mg+2] (stereo partly shown) [SAMe•2.0H2SO4•1.0Mg2SO4•0.4H2O] .
result: 89.4

query: Give a short answer stating reported percentage of active S,S stereoisomer remaining for C[S+](CCC(N)C(=O)[O-])C[C@H]1O[C@@H](n2cnc3c(N)ncnc32)[C@H](O)[C@@H]1O.C[S+](CCC(N)C(=O)[O-])C[C@H]1O[C@@H](n2cnc3c(N)ncnc32)[C@H](O)[C@@H]1O.O=S(=O)(O)O.O=S(=O)([O-])[O-].[Mg+2] (stereo partly shown) [SAMe•0.5H2SO4•0.5Mg2SO4•0.4H2O] .
result: 88.8

query: Give a short answer stating reported percentage of active S,S stereoisomer remaining for C[S+](CCC(N)C(=O)[O-])C[C@H]1O[C@@H](n2cnc3c(N)ncnc32)[C@H](O)[C@@H]1O.Cl.Cl.O=S(=O)([O-])[O-].[Mg+2] (stereo partly shown) [SAMe•2.0HCl•1.0MgSO4] .
result: 87.9

query: Give a short answer stating reported percentage of active S,S stereoisomer remaining for C[S+](CCC(N)C(=O)[O-])C[C@H]1O[C@@H](n2cnc3c(N)ncnc32)[C@H](O)[C@@H]1O.C[S+](CCC(N)C(=O)[O-])C[C@H]1O[C@@H](n2cnc3c(N)ncnc32)[C@H](O)[C@@H]1O.O=S(=O)(O)O.[Ca+2].[Cl-].[Cl-] (stereo partly shown) [SAMe•0.5H2SO4•0.5CaCl2] .
result: 86.8

query: Give a short answer stating reported percentage of active S,S stereoisomer remaining for C[S+](CCC(N)C(=O)[O-])C[C@H]1O[C@@H](n2cnc3c(N)ncnc32)[C@H](O)[C@@H]1O.O=S(=O)(O)O.O=S(=O)(O)O.[Ca+2].[Cl-].[Cl-] (stereo partly shown) [SAMe•2.0H2SO4•1.0CaCl2] .
result: 85.3

query: Give a short answer stating reported percentage of active S,S stereoisomer remaining for C[S+](CCC(N)C(=O)[O-])C[C@H]1O[C@@H](n2cnc3c(N)ncnc32)[C@H](O)[C@@H]1O.C[S+](CCC(N)C(=O)[O-])C[C@H]1O[C@@H](n2cnc3c(N)ncnc32)[C@H](O)[C@@H]1O.Cl.[Cl-].[Cl-].[Mg+2] (stereo partly shown) [SAMe•0.5HCl•0.5MgCl2] .
result: 89.8

query: Give a short answer stating reported percentage of active S,S stereoisomer remaining for C[S+](CCC(N)C(=O)[O-])C[C@H]1O[C@@H](n2cnc3c(N)ncnc32)[C@H](O)[C@@H]1O.C[S+](CCC(N)C(=O)[O-])C[C@H]1O[C@@H](n2cnc3c(N)ncnc32)[C@H](O)[C@@H]1O.Cl.O=S(=O)([O-])[O-].[Mg+2] (stereo partly shown) [SAMe•0.5HCl•0.5MgSO4] .
result: 87.8

query: Give a short answer stating reported percentage of active S,S stereoisomer remaining for C[S+](CCC(N)C(=O)[O-])C[C@H]1O[C@@H](n2cnc3c(N)ncnc32)[C@H](O)[C@@H]1O.Cl.Cl.[Cl-].[Cl-].[Mg+2] (stereo partly shown) [SAMe•2.0HCl•1.0MgCl2] .
result: 87.8

query: Give a short answer stating reported percentage of active S,S stereoisomer remaining for C[S+](CCC(N)C(=O)[O-])C[C@H]1O[C@@H](n2cnc3c(N)ncnc32)[C@H](O)[C@@H]1O.C[S+](CCC(N)C(=O)[O-])C[C@H]1O[C@@H](n2cnc3c(N)ncnc32)[C@H](O)[C@@H]1O.O=S(=O)(O)O.[Cl-].[Cl-].[Mg+2] (stereo partly shown) [SAMe•0.5H2SO4•0.5MgCl2] .
result: 86.8
